Consider the following molecules and their measured MIC readings.
- System: Moraxella catarrhalis
- test-description: Antimicrobial activity against Moraxella catarrhalis ATCC 43617 after 48 hrs by microtiter plate assay
- Assay type: functional
- experimental-setup: ATCC 43617, 48 h
Supply the numeric figure in µg/mL, leaving out any unit text.

Below are worked cases with known answers.
* CCCC[C@H](CN(O)C=O)C(=O)[C@@H](NC(=O)c1nccc2ccccc12)C(C)C | 0.1
* CCCC[C@H](CN(O)C=O)C(=O)[C@@H](NC(=O)OC(C)(C)C)C(C)C | 0.1
* CCCC[C@H](CN(O)C=O)C(=O)[C@@H](NC(=O)Nc1ccccc1OC)C(C)C | 0.1
* CCCC[C@H](CN(O)C=O)C(=O)[C@@H](NC(=O)c1ccc2ccccc2n1)C(C)C | 0.1
* CCCC[C@H](CN(O)C=O)C(=O)[C@@H]1CCCN1C(=O)OC(C)(C)C | 0.4

Exercise: Form field: MIC recorded for COc1ccccc1NC(=O)N[C@@H](C(=O)N(CC(=O)NO)CC1CCCC1)C(C)(C)C with Moraxella catarrhalis (enter value)
Key: 0.1

Exercise: Which measured MIC belongs to CCCC[C@H](CN(O)C=O)C(=O)[C@@H](NC(=O)c1cccc(OC)c1)C(C)C , tested on Moraxella catarrhalis?
Key: 0.8

Exercise: Return MIC measured with Moraxella catarrhalis given this molecule: CCCC[C@H](CN(O)C=O)C(=O)[C@@H](NC(=O)Nc1ccccc1F)C(C)C
Key: 0.1

Exercise: # query: MIC | item CCCC[C@H](CN(O)C=O)C(=O)[C@@H](NC(=O)NC1CCCC1)C(C)C | system: Moraxella catarrhalis
Key: 0.1

Exercise: What is its MIC for Moraxella catarrhalis? Entry: CCCC[C@H](CN(O)C=O)C(=O)[C@@H](NC(=O)c1ccncc1)C(C)C
Key: 0.1

Exercise: Lab request: please report MIC under test system Moraxella catarrhalis for CCCC[C@H](CN(O)C=O)C(=O)[C@@H](NC(=O)c1ccccn1)C(C)C
Key: 0.1

Exercise: Param readout = MIC; param system = Moraxella catarrhalis; param query = CCCC[C@H](CN(O)C=O)C(=O)[C@@H](NC(=O)c1ccccc1)C(C)C ; response: value
Key: 0.4

Exercise: Form field - read-out: MIC; system: Moraxella catarrhalis; submitted item: CCCC[C@H](CN(O)C=O)C(=O)[C@@H](NC(=O)C(C)C)C(C)C
Key: 1.6

Exercise: Hi! What's the reported MIC for CCCC[C@H](CN(O)C=O)C(=O)[C@@H](NC(=O)NC(C)C)C(C)C on Moraxella catarrhalis?
Key: 0.8

Exercise: Form entry - test system: Moraxella catarrhalis; read-out: MIC; molecule: CCCC[C@H](CN(O)C=O)C(=O)[C@H](C)NC(=O)OC(C)(C)C
Key: 1.6

Exercise: Missing value: MIC, Moraxella catarrhalis, entry CCCC[C@H](CN(O)C=O)C(=O)[C@@H](NC(=O)c1cccnc1)C(C)C . Fill in?
Key: 0.1
